System: UniProt Q12809
Sequence (Q12809 whole entry): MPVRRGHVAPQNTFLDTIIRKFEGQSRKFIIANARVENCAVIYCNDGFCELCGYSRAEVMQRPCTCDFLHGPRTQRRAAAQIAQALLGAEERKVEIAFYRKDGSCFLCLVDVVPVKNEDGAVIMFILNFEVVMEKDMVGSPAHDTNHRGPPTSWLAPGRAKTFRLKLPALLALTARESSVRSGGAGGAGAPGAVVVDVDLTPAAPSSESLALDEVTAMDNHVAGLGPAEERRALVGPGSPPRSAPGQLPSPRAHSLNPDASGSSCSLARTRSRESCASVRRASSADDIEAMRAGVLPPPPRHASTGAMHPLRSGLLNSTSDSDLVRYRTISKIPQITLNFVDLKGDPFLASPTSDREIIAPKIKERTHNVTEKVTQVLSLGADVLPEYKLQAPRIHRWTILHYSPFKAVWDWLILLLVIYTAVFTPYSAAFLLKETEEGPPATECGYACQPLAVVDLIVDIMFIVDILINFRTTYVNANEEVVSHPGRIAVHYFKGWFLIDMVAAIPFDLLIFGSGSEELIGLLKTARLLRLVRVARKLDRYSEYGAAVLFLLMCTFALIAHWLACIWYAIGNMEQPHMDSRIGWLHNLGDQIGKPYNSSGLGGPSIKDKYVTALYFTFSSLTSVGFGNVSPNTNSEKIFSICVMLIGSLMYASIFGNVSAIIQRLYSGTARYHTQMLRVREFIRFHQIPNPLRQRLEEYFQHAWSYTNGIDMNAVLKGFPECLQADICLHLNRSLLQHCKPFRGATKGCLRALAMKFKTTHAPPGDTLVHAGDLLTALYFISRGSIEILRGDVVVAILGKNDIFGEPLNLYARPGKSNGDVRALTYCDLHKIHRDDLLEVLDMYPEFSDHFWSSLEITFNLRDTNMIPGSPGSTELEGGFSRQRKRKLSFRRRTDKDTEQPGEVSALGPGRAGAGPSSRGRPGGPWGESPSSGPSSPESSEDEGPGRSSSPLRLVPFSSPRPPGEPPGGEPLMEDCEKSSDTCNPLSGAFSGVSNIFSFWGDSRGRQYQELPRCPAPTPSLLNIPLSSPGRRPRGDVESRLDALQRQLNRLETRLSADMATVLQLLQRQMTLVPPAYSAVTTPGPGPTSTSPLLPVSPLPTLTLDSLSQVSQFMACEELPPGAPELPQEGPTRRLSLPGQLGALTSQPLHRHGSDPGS
Test Summary: Displacement of [3H]dofetilide from human ERG expressed in HEK293 cells at 10 uM
Measurement Setup: HEK293 cells that express human ERG, probe [3H]dofetilide
Assay Endpoint: inhibition at 10 µM (%)
Please reply with the bare figure in % and do not write the unit itself.

These solved cases illustrate the format of a correct answer.
[
  {
    "Compound Smiles": "O=C([C@@H]1C[C@H](N2CCN(c3noc4ccccc34)CC2)CN1)N1CCC(F)(F)C1",
    "inhibition at 10 µM, %": 26.7
  },
  {
    "Compound Smiles": "O=C([C@@H]1C[C@H](N2CCN(c3nc4cnccc4o3)CC2)CN1)N1CCC(F)(F)C1",
    "inhibition at 10 µM, %": 8.1
  },
  {
    "Compound Smiles": "N#Cc1cccnc1N1CCN([C@@H]2CN[C@H](C(=O)N3CCC(F)(F)C3)C2)CC1",
    "inhibition at 10 µM, %": -7.3
  }
]

Now take the following compound into account.
[Q] Name the recorded inhibition at 10 µM of the compound listed here: "O=C([C@@H]1C[C@H](N2CCN(c3nc4cccnc4o3)CC2)CN1)N1CCC(F)(F)C1"
[A] 7.4
